Provenance of the data: the nanobody polyreactivity screen of Harvey et al. (2022)

- METHOD_DESCRIPTION: yeast display, Sf9 membrane polyspecificity reagent, FACS + sequencing; frameworks hold sequencing errors
OBSERVATION_TYPE: polyreactivity (PSR sort gate)

CONSTRUCT_SEQUENCE: QVQLVESGGGLVQAGGSLRLSCAASGSIFNSYAMGWYRQAPGKERELVAAISRSGGRTYYADSVKGRFTISRDNAKNTVYLQMNSLKPEDTAVYYCAADAGSYLSYKAWARKMYYLGQGTQVTVSS
OBSERVATION_TYPE: polyreactivity (PSR sort gate)
VALUE_MEASURED: high polyreactivity
//
CONSTRUCT_SEQUENCE: QVQLVESGGGLVQAGGSLRLSCAASGFTFRYYVMGWYRQSPGKERELVASISRAGSTTNYADSVKGRFTISRDNAKNTVYLQMNSLNPEDTAVYYCNVVITPGYSYDISRGEGYWGQGTQVTVSS
OBSERVATION_TYPE: polyreactivity (PSR sort gate)
VALUE_MEASURED: high polyreactivity
//
CONSTRUCT_SEQUENCE: QVQLEESGGGVVQAGGSLRLSCAASGRIFDRYDMARYRQAPGKERELVASISSGGSTYYADSVKGRFTISRVTAKNPVYLQMNSLKPEDTAVYYCNAEARSRRYRYDYWGQGTQVTVSS
OBSERVATION_TYPE: polyreactivity (PSR sort gate)
VALUE_MEASURED: high polyreactivity
//
CONSTRUCT_SEQUENCE: QVQLVESGGGLVQAGGSLRLSCAASGSTFPQYAMGWYRQAPGKERELVAAISFSGGSTYYADSVKGRFTISRDNAKNTVYLQMNSLKPEDTAVYYCAAELGLAQYYYWGQGTQVTVSS
OBSERVATION_TYPE: polyreactivity (PSR sort gate)
VALUE_MEASURED: low polyreactivity
//
CONSTRUCT_SEQUENCE: QVQLVESGGGLVQAGGSLRLSCAASGFIFFQYAMGWYRQAPGKERELVAAITARSGSTYYADSVKGRFTISRDNAKNTVYLQMNSLKPEDTAVYYCAARPRYYRWGPLDYWGQGTQVTVSS
OBSERVATION_TYPE: polyreactivity (PSR sort gate)
VALUE_MEASURED: high polyreactivity
//
CONSTRUCT_SEQUENCE: QVQLVESGGGLVQAGGSLRLSCAASGSIFKRYAMGWYRHAPGKERELVAAISYSGGSTNYADSVKGRFTISRDNAKNTVYLQMNSLKPEDTAVYYCAKRSTSRGYDYWGQGTQVTVSS
OBSERVATION_TYPE: polyreactivity (PSR sort gate)
VALUE_MEASURED: high polyreactivity

// each listed sequence needs a value for polyreactivity (PSR sort gate)
1. QVHLVESGGGLVQAGGSLRLSCAASGFTFVRNAMGWYRQAPGKERELVAAISGSGGSTYYADSVKGRFTISRDTAKNTVYLQMNSLKPEDTAVYYCAAGWTRGWSLDYYYWGQGTQVTVSS
2. QVQLVESGGGLVQAGGSLRLSCAASGSIFHRYAMGWYTQAPGKERELVAAISWSGGSTYYADSVKGRFTISRDNAKNTVYLQMNSLKPEDTAVYYCNRVAWNYGFGSSAYGYWGQGTQVTVSS
3. QVHLVESGGGLVQAGGSLRLSCAASGRTFDHNTMGWYRQAPGKERELVAAISWSGGTTYYADSVKGRFTISRDNAKNTVYLQMNSLKPEDTAVYYCAADRSPGSYGYQYDYWGQGTQVTVSS
4. QVQLQESGGGLLQAGGSLRLSCAASGNIFLSIFMGWYRQAPGKEREFVAGIGSGTNTNYADSVKGRFTISRDNAKNTVYLQMNSLKPEDTAGYYSAAGRFGLYYHGYWGLGTQVTVSS
5. QVQLVESGGGLVQAGGSLRLSCAASGITFLDYTMGWYRQAPGKERELVATISKSGGSTYYADSVKGRFTISRDNAKNTVYLQMNSLKPEDTAVYYCAARGFTFWRYYYWGQGTQVTVSS

Result:
["high polyreactivity", "high polyreactivity", "low polyreactivity", "high polyreactivity", "high polyreactivity"]
